system: SF-295; test: Cytotoxicity against human SF295 cells at 30 uM after 48 hrs by SRB assay; assay type: functional; details: SF-295, 48 h, read-out: GI
Label rule, in plain words: inhibition of growth at 30 µM of 50% and up is label 1, under 50% is label 0.

1. C=C(C)[C@@H]1CC[C@]2(C(=O)O)CC[C@]3(C)[C@H](CC[C@@H]4[C@@]5(C)CC[C@H](OCc6cn(-c7ccc(OC)cc7)nn6)C(C)(C)[C@@H]5CC[C@]43C)[C@@H]12 = label 0
2. C=C(C)[C@@H]1CC[C@]2(C(=O)O)CC[C@]3(C)[C@H](CC[C@@H]4[C@@]5(C)CC[C@H](OCc6cn(-c7ccc(Cl)cc7)nn6)C(C)(C)[C@@H]5CC[C@]43C)[C@@H]12 = label 0
3. C=C(C)[C@@H]1CC[C@]2(C(=O)O)CC[C@]3(C)[C@H](CC[C@@H]4[C@@]5(C)CC[C@H](OCc6cn(C7O[C@H](COC(C)=O)[C@H](OC(C)=O)[C@H](OC(C)=O)[C@H]7OC(C)=O)nn6)C(C)(C)[C@@H]5CC[C@]43C)[C@@H]12 (stereo partly specified) = label 0
4. C=C(C)[C@@H]1CC[C@]2(C(=O)O)CC[C@]3(C)[C@H](CC[C@@H]4[C@@]5(C)CC[C@H](OCc6cn(-c7ccc(C#N)cc7)nn6)C(C)(C)[C@@H]5CC[C@]43C)[C@@H]12 = label 0
5. C=C(C)[C@@H]1CC[C@]2(C(=O)O)CC[C@]3(C)[C@H](CC[C@@H]4[C@@]5(C)CC[C@H](O)C(C)(C)[C@@H]5CC[C@]43C)[C@@H]12 = label 1
6. C=C(C)[C@@H]1CC[C@]2(C(=O)O)CC[C@]3(C)[C@H](CC[C@@H]4[C@@]5(C)CC[C@H](OCc6cn(-c7cccc(OC)c7)nn6)C(C)(C)[C@@H]5CC[C@]43C)[C@@H]12 = label 0

---

system: SF-295; assay: Cytotoxicity against human SF295 cells at 30 uM after 48 hrs by SRB assay; assay type: functional; conditions: SF-295, 48 h, read-out: GI
Label rule, in plain words: inhibition of growth at 30 µM of 60% and up is Met, under 60% is Not met.

1. C=C(C)[C@@H]1CC[C@]2(C(=O)O)CC[C@]3(C)[C@H](CC[C@@H]4[C@@]5(C)CC[C@H](OCc6cn(-c7ccc8c(c7)OCO8)nn6)C(C)(C)[C@@H]5CC[C@]43C)[C@@H]12 = Not met
2. C=C(C)[C@@H]1CC[C@]2(C(=O)O)CC[C@]3(C)[C@H](CC[C@@H]4[C@@]5(C)CC[C@H](OCc6cn(-c7cc(OC)c(OC)c(OC)c7)nn6)C(C)(C)[C@@H]5CC[C@]43C)[C@@H]12 = Not met
3. C=C(C)[C@@H]1CC[C@]2(C(=O)O)CC[C@]3(C)[C@H](CC[C@@H]4[C@@]5(C)CC[C@H](OCc6cn(-c7ccc([N+](=O)[O-])cc7)nn6)C(C)(C)[C@@H]5CC[C@]43C)[C@@H]12 = Met
4. C=C(C)[C@@H]1CC[C@]2(C(=O)O)CC[C@]3(C)[C@H](CC[C@@H]4[C@@]5(C)CC[C@H](OCc6cn(-c7ccc(CC#N)cc7)nn6)C(C)(C)[C@@H]5CC[C@]43C)[C@@H]12 = Met
5. C=C(C)[C@@H]1CC[C@]2(C(=O)O)CC[C@]3(C)[C@H](CC[C@@H]4[C@@]5(C)CC[C@H](OCc6cn(-c7cccc(I)c7)nn6)C(C)(C)[C@@H]5CC[C@]43C)[C@@H]12 = Not met
6. C=C(C)[C@@H]1CC[C@]2(C(=O)O)CC[C@]3(C)[C@H](CC[C@@H]4[C@@]5(C)CC[C@H](OCc6cn(-c7cccc(CO)c7)nn6)C(C)(C)[C@@H]5CC[C@]43C)[C@@H]12 = Not met
7. C=C(C)[C@@H]1CC[C@]2(C(=O)O)CC[C@]3(C)[C@H](CC[C@@H]4[C@@]5(C)CC[C@H](OCc6cn(-c7ccccc7C#N)nn6)C(C)(C)[C@@H]5CC[C@]43C)[C@@H]12 = Met
8. C=C(C)[C@@H]1CC[C@]2(C(=O)O)CC[C@]3(C)[C@H](CC[C@@H]4[C@@]5(C)CC[C@H](OCc6cn(-c7ccccc7CO)nn6)C(C)(C)[C@@H]5CC[C@]43C)[C@@H]12 = Met
